Test system: SF-539 CNS
PROTOCOL_DESCRIPTION: NCI-60 one-dose screen, 48 h (100 = growth as untreated, 0 = no growth, -100 = all killed)
TEST_PARAMETERS: 10 µM unless noted
This is part of a sample that, as a whole, favours compounds with a hit. Of some 83,000 tested, about 20% had one in any assay.
Would you kindly list growth for each of these compounds?
Form entry: value (%) — number only.

Fill in: growth of `Oc1ccccc1OB(Oc1ccccc1O)N(CCCl)CCCl` is ___ 63.2

Param item: `CC1(C)N=C(N)N=C(N)N1c1ccc(CCCCc2ccc(Cl)cc2S(=O)(=O)F)c(Cl)c1` 19.6

Param item: CN1C(=O)NC(=O)C(N=Nc2ccc(Cl)cc2)C1=O (stereo not given) 101

Param item: `CCOP(=O)(OCC)Oc1ccc(Sc2ccc(OP(=O)(OCC)OCC)cc2)cc1` 104

Param item: O=C(O)C1[O][Sb][O]C1C(=O)O (stereo not given) 98.2

----------
Tested on: HL-60(TB) leukemia
PROTOCOL_DESCRIPTION: NCI-60 one-dose screen, 48 h
TEST_PARAMETERS: 10 µM unless noted
Compounds without any hit were thinned out: in the full panel of roughly 83,000, 20% have a hit. Active and inactive are the calls of the source. Rule for the calls: active = growth percent below 10; inactive = the rest.
// allowed return values: yes (1) (active), no (0) (inactive)

Which outcome did this test record for the molecule `c1cnc2nc3c(cc2c1)oc1ccccc13` ? no (0)

Param item: CCCN(CCC)CC(O)COc1ccccc1C(=O)Nc1ccccc1 (stereo not drawn) no (0)

Param item: `COc1ccc2nc3cc(Cl)ccc3c(NC(=O)CSc3ccc(Cl)cc3)c2c1` yes (1)

----------
Would you kindly list growth for each of these compounds?
Test system: HL-60(TB) leukemia
PROTOCOL_DESCRIPTION: NCI-60 one-dose screen, 48 h (100 = growth as untreated, 0 = no growth, -100 = all killed)
TEST_PARAMETERS: 10 µM unless noted
Compounds without any hit were thinned out: in the full panel of roughly 83,000, 20% have a hit.
Form entry: value (%) — number only.

Look up growth with HL-60(TB) leukemia for this compound: CC(=O)OC[C@]12CC[C@H]3[C@@H](C[C@H]4O[C@]45CC=CC(=O)[C@]35C)[C@]1(O)CC[C@@]2(O)[C@@](C)(O)C1CC(C)=C(C)C(=O)O1 (stereo not given in full) -11.8

Param item: `C=C1C(=O)O[C@H]2[C@H]1CC/C(COC(=O)c1ccc3ccccc3c1)=C\CC[C@@]1(C)O[C@@H]21` -53.5

Param item: `NC(=O)OCC(CO)(c1ccccc1)c1ccccc1` 114

Param item: `O=C(NCCCNS(=O)(=O)c1ccc(Cl)cc1)Nc1ccc(-n2cc(-c3ccncc3)c(-c3ccc(Cl)c(O)c3)n2)cc1` 16.3

Param item: CSc1ccc2c(c1)N(CCC1CCCCN1C)c1ccccc1S2 (stereo not given) 86.1

Param item: `C[C@@H]1N=C(c2ccc(Cl)cc2Cl)Nc2nc3ccccn3c2C1=O` 0.461

Param item: `O=S(=O)(NCCNc1nccc(-c2c(-c3ccc(O)cc3)nc3sccn23)n1)c1cccc2ccccc12` 90.3

Param item: `O=C(CCCCCCC(=O)Nc1ccccc1)NO` -0.31

Param item: `COc1ccc(/C=C(\C#N)c2cc3ccccc3n2C)cc1` 0.415

Param item: `O=C(Nc1cccc(Cn2c(=O)[nH]c3ccc(Oc4ncccn4)cc3c2=O)c1)c1cc(Cl)cc(Cl)c1` 98.5

Param item: `COc1ccc(-c2nc3sc4c(c3c(=O)[nH]2)CCCCCC4)cc1` 29

Param item: `O=C(Nc1ccc(Br)cc1)c1ccc(Cl)c(Cl)c1` 19.4

Param item: `CCCCNc1ccc2c3c1cccc3c(=O)n1c3ccccc3nc21` 63.4

Param item: `Nc1ccccc1-c1ccc([N+](=O)[O-])cc1` 14.2

Param item: `Oc1c(CN2CCN(c3ccccc3F)CC2)cc(Br)c2cccnc12` -34.4

----------
Would you kindly list growth for each of these molecules?
System: OVCAR-5 ovarian
PROTOCOL_DESCRIPTION: NCI-60 one-dose screen, 48 h (100 = growth as untreated, 0 = no growth, -100 = all killed)
TEST_PARAMETERS: 10 µM unless noted
Compounds without any hit were thinned out: in the full panel of roughly 83,000, 20% have a hit.
Form entry: value (%) — number only.

Fill in: growth of `N#[N+]c1cnc([O-])[nH]c1=O` is ___ 83.9

Param item: CC(N)Cc1ccc(O)cc1 (stereo unspecified) 104

Param item: O=C1C=CC(=O)C2C1C1(Cl)C(Cl)=C(Cl)C2(Cl)C1(Cl)Cl (stereo unspecified) 78.3

Param item: C#CC1(O)CCC2(C)C(CCC3C4CCC(=O)C4(C)CCC32)C1 (stereo unspecified) 99.8

Param item: `Nc1ccc([N+](=O)[O-])c2c1Oc1ccccc1O2` 88.1

Param item: `COc1cc[c]([Hg][Cl])cc1` 105

----------
Test system: OVCAR-3 ovarian
PROTOCOL_DESCRIPTION: NCI-60 one-dose screen, 48 h
TEST_PARAMETERS: 10 µM unless noted
The panel holds about 83,000 compounds, 20% with a hit somewhere; the sample as a whole holds those more often. Activity calls are given as the source filed them. Rule for the calls: active = growth percent below 10; inactive = the rest.
// allowed return values: active, inactive

Which outcome did this test record for the compound CCCCCCCCCCCCOc1ccc(C(=O)Oc2ccc(CSP3(=O)OCC4OC(n5cnc6c(N)ncnc65)C(F)C4OP(=O)(O)OCC4OC(n5ccc(=O)[nH]c5=O)C(F)C4O3)cc2)cc1 (stereo not drawn) ? inactive

Param item: CC(=O)[O][Hg][CH2]C1(C)COC(C)([CH2][Hg][O]C(C)=O)CO1 (stereo not drawn) active

Param item: Cc1ccc(N)cc1[As]=[As]c1cc(N)ccc1C (stereo not drawn) active

Param item: COc1cc2c(cc1OC)CN(C)C(C)C2 (stereo not drawn) inactive

Param item: COc1ccc(C2=NN(c3ccccc3)C(c3sc(N(CCCl)CCCl)nc3Cl)C2)cc1 (stereo not drawn) inactive

Param item: `O=C(CCF)c1ccc(O)cc1` inactive

Param item: CNc1ccc(C(=O)CC(O)CCC(C)C2OC(=O)CC(O)CC(=O)CC(O)CC(O)CC(O)CC(O)CC3(O)CC(O)C(C(=O)OC)C(CC(O[C@@H]4O[C@H](C)[C@@H](O)[C@H](N)[C@@H]4O)/C=C/C=C/C=C/C=C/C=C/C=C/C=C/C2C)O3)cc1 (stereo partly drawn) active

Param item: `CCOC(=O)/C=C(\C)Nc1ccc(N/C(C)=C/C(=O)OCC)c2c1Oc1ccccc1O2` inactive

----------
System: HL-60(TB) leukemia
PROTOCOL_DESCRIPTION: NCI-60 one-dose screen, 48 h
TEST_PARAMETERS: 10 µM unless noted
This is part of a sample that, as a whole, favours compounds with a hit. Of some 83,000 tested, about 20% had one in any assay. Activity calls are given as the source filed them. The calls were made as follows: active = growth percent below 10; inactive = the rest.
// allowed return values: true for active, false for inactive

Which outcome did this test record for the molecule `Cc1nn(-c2ccccc2)c(Cl)c1/C=C/C(=O)c1ccc(F)cc1` ? false

Param item: `Nc1nccc2c1ccn2-c1ccc(NC(=O)c2ccc(N3CCOCC3)c(C(F)(F)F)c2)cc1` true

Param item: `CCN1CCN(c2nc(NNC(=O)c3ccc(OC)cc3)nc(N3CCN(C(c4ccccc4)c4ccccc4)CC3)n2)CC1` false

Param item: `COc1cccc(-c2nc3cc(NC(=O)c4ccc(Cl)c(C#N)c4)ccc3o2)c1` false

Param item: `C=C(C)[C@@H]1CC[C@]2(C(=O)N3CCN(C)CC3)CC[C@]3(C)[C@H](CC[C@@H]4[C@@]5(C)CC(CCCNC(C)=O)(CCCNC(C)=O)[C@H](OC(C)=O)C(C)(C)[C@@H]5CC[C@]43C)[C@@H]12` false

Param item: `C=CC(=O)Nc1cccc(Nc2nc(SC)nc(-c3cccc([N+](=O)[O-])c3)c2C#N)c1` false

----------
System: HL-60(TB) leukemia
PROTOCOL_DESCRIPTION: NCI-60 one-dose screen, 48 h (100 = growth as untreated, 0 = no growth, -100 = all killed)
TEST_PARAMETERS: 10 µM unless noted
About 83,000 compounds went through this panel and 20% of them were active in at least one assay; those are over-represented in the sample as a whole. The source made the active and inactive calls. The calls were made as follows: active = growth percent below 10; inactive = the rest.
ENDPOINT_LABEL: growth

Fill in: growth of `CCCCNc1nnc2n(Cc3ccccc3)c(=O)c3c4c(sc3n12)CCCC4` is ___ 90.5% (inactive)

Param item: CC(=O)N1N=C(c2ccccc2)CC1c1sc(N(CCCl)CCCl)nc1Cl (configuration not stated) 98% (inactive)

Param item: `COc1ccc2sc(N(Cc3cccnc3)C(=O)c3ccc(C#N)cc3)nc2c1` 63.4% (inactive)

Param item: `COc1ccc(/C=C/c2nc(N3CCOCC3)c3cc(F)c(F)cc3n2)cc1OC` -2.81% (active)

Param item: `CC[C@H](C)[C@@H](C(=O)OC)n1cc(CNC(=O)[C@@H](Cc2ccccc2)NC(=O)OCc2ccccc2)nn1` 104% (inactive)

Param item: `COc1cccc(-c2nc3sccn3c2-c2ccnc(NCCCNS(=O)(=O)c3ccccc3)c2)c1` -12.4% (active)

Param item: `Cc1c(C)c(C)c([N+](=O)[O-])c([N+](=O)[O-])c1C` 109% (inactive)

Param item: O=c1n(CC2CO2)c(=O)n(CC2CO2)n1CC1CO1 (configuration not stated) 7.91% (active)

Param item: COc1ccc2c(c1)CCNC21C(=O)Nc2c(Br)cc(Br)cc21 (configuration not stated) 117% (inactive)

Param item: `C=CC(=O)OCCCCCCCC` 88.6% (inactive)

Param item: `CCOC(=O)Nc1nccs1` 100% (inactive)

Param item: `COc1ccc2c(O)c(/C=C3\N=Nc4ccccc43)oc2c1C[C@H]1CCNC[C@H]1F` 14.4% (inactive)

Param item: `CC(=Nc1ccc(N(C)C)cc1)c1ccccc1` 26.1% (inactive)

Param item: `Cn1cc(-c2csc(-c3cn(CCCN4CCOCC4)c4ccccc34)n2)c2cccnc21` 70.9% (inactive)

Param item: `CC1(C)CC[C@]2(CO)CC[C@]3(C)[C@H](CC[C@@H]4[C@@]5(C)CCCNC(C)(C)[C@@H]5CC[C@]43C)[C@H]2[C@H]1O` 57.8% (inactive)

Param item: `Clc1cccc(Cl)c1C(Nc1nc2ccccc2s1)Nc1nc2ccccc2s1` 105% (inactive)

Param item: `O=C(N/N=C1\SCC(=O)N1c1ccccc1)c1cc(-c2cc3ccccc3o2)nn1-c1ccccc1` 112% (inactive)

Param item: `CC(C)(Sc1cc(C(C)(C)C)c(O)c(C(C)(C)C)c1)Sc1cc(C(C)(C)C)c(OC(=O)CCCC(=O)O)c(C(C)(C)C)c1` 67.6% (inactive)

Param item: `Nc1ccc2ccc(N)cc2c1` 97.4% (inactive)

Param item: `N[C@@H](CC/[N+]([O-])=N/O)C(=O)O` 110% (inactive)

Param item: `Cc1cccc(NC(=O)c2sc3nc4c(cc3c2N)CCC4)c1C` 8.43% (active)

Param item: `N#Cc1c(-c2ccc(Cl)cc2)cc(-c2cc(O)ccc2O)nc1N` 68.2% (inactive)

Param item: `CCc1c(Nc2ccc(C)cc2)nc(N)[nH]c1=O` 89.6% (inactive)

Param item: CN(C)CC1C(=O)O[C@H]2[C@H]1CC/C(COC(=O)c1cc3ccccc3[nH]1)=C\CC[C@@]1(C)O[C@@H]21 (some centres not stated) -36% (active)

Param item: `C=C(C)[C@@H]1C[C@H](O)Cc2cc(F)ccc2N1` -20.3% (active)

Param item: `O=C(CN1C(=O)c2ccccc2S1(=O)=O)Nc1nc(-c2cc3ccccc3oc2=O)cs1` 101% (inactive)

Param item: `COc1cc(-c2nc3ccccc3s2)ccc1OCc1nc2n(n1)S(=O)(=O)c1ccccc1N2c1ccccc1` 16.2% (inactive)

Param item: `C#C[C@@]1(O)[C@@H](CO)O[C@@H](n2cc(C(F)(F)F)c3c(N)ncnc32)[C@@H]1O` -37.6% (active)

Param item: `COc1ccc(-c2csc(C3=C(O)CN(C(C)C)C3=N)n2)cc1OC` 76.4% (inactive)

Param item: `O=C1/C(=C\c2cccc3nccnc23)SC(=S)N1CCc1ccc(O)cc1` 79.5% (inactive)

Param item: `COc1ccc(C(=O)/C=C/c2ccccc2)cc1S(N)(=O)=O` 64.2% (inactive)

Param item: `Cc1ccc(-c2nc(C(Cl)Cl)n3nc(-c4ccccc4)cc3n2)cc1` 61.3% (inactive)

Param item: `O=C(O)c1ccc(NC(=O)c2ccc(Nc3ccnc(C(F)(F)F)c3)cc2)cc1` 97.4% (inactive)

Param item: CCCCNC(=O)NS(=O)(=O)c1ccc(N2N=C(c3cc(C)ccc3C)CC2c2cc(OC)c(OC)c(OC)c2)cc1 (configuration not stated) -16.1% (active)

Param item: Cc1[nH]c(C2CC(c3ccc(C(F)(F)F)c(F)c3)=NN2c2ccccc2)c(C)c1C(=O)NCC(F)(F)F (configuration not stated) 87.6% (inactive)

Param item: COc1ccc(NC(=O)c2sc3nc(C)c(C(O)c4ccc(OC)cc4)cc3c2N)cc1 (configuration not stated) -59.5% (active)

Param item: `O=[N+]([O-])c1ccc(N=Nc2ccc(O)cc2O)cc1` 32.5% (inactive)
